studyTarget: human activated blood coagulation factor X (Homo sapiens, UniProt P00742)
Construct: purchased Calbiochem Corporation
Sequence (P00742 235-488 limits assumed): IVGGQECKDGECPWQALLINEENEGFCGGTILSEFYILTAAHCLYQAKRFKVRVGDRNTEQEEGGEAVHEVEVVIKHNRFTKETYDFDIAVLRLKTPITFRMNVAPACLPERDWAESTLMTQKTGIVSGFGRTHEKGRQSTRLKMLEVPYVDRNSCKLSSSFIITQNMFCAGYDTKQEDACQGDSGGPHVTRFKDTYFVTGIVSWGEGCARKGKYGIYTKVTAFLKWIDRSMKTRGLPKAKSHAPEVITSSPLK
Sequence (P00742 41-179 partner limits assumed): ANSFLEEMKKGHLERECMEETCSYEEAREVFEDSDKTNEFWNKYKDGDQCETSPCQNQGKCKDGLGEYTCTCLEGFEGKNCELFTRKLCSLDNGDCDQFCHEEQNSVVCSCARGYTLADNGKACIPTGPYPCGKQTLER
protocolText: Measurement of inhibitory activity for activated blood coagulation factor X (chromogenic substrate S-2222)
Format: biochemical
Counter-ions that a name gives are not always drawn.
experimentalEndpoint: IC50 (nM)
Respond with the bare value in nM.

stdin: # get_value(readout='IC50', item= CC(=N)N1CCC(Oc2ccc(NC(=O)CN(Cc3ccccc3)c3cccc(C(=N)N)c3)cc2)CC1 [Compound 58, dihydrochloride] )
stdout: 42

* * *

studyTarget: human thrombin (Homo sapiens)
Construct: human thrombin (Sigma Chemical Company); purchased Sigma Chemical Company
protocolText: Measurement of inhibitory activity for thrombin (chromogenic substrate S-2238)
Assay type: biochemical
conditionSummary: IC50, concentration showing 50 % inhibition of control; 10 minutes at 37 °C, pH 8.4; read-out: Inhibitory activity for thrombin
Structures can show the parent of a compound that is named as a salt.
experimentalEndpoint: IC50 (µM)
Give the value, in units of µM, as a plain number.

Completed entries (count: 4):
CC(=N)N1CCC(c2ccc(NC(=O)CN(Cc3cccc(O)c3)c3cccc(C(=N)N)c3)cc2)CC1.Cl.Cl [Compound 52, dihydrochloride] = 77
CC(=N)N1CCC(c2ccc(NC(=O)CN(Cc3cccc(OCC(=O)O)c3)c3cccc(C(=N)N)c3)cc2)CC1.Cl.Cl [Compound 62, dihydrochloride] = 206
CC(=N)N1CCC(c2ccc(NC(=O)CN(Cc3nc[nH]c3C)c3cccc(C(=N)N)c3)cc2)CC1.Cl.Cl [Compound 74, dihydrochloride] = 177
CC(=N)N1CCC(c2ccc(NC(=O)CN(CC=C(C)C)c3cccc(C(=N)N)c3)cc2)CC1.Cl.Cl [Compound 55, dihydrochloride] = 15

stdin: Form field: reported IC50 of CC(C)=CCN(CC(=O)Nc1ccc(OC(C)C)cc1)c1cccc(C(=N)N)c1.Cl [Compound 22, hydrochloride]
stdout: 13

stdin: I'd like to know its IC50. The compound in question is CC(=N)N1CCC(c2ccc(NC(=O)CN(Cc3cccc4ccccc34)c3cccc(C(=N)N)c3)cc2)CC1 [Compound 65, dihydrochloride]
stdout: 42

stdin: Which value of IC50 has been reported for CC(=N)N1CCC(Oc2ccc(NC(=O)CNc3cccc(C(=N)N)c3)cc2)CC1 [Compound 79, dihydrochloride] in the records?
stdout: 308
